# tested_target: β-secretase (BACE) (Homo sapiens)
# Construct: purchased Panvera
# experiment_description: BACE FS1 % Inhibition Assay
# Format: biochemical
# experimental_parameters: 3 μM test compound
reported_endpoint: % Inhibition (FS) (%)

molecule: CCC[C@H](CNC(=O)CCC(C)C)N1Cc2cc(Oc3ccccc3)ccc2N=C1N
% Inhibition (FS) / %: 122

molecule: CC1CCCCN1C(=O)CCCC(CCC(=O)N1CCCCC1C)N1Cc2cc(Oc3ccccc3)ccc2N=C1N (stereo not shown)
% Inhibition (FS) / %: 96

molecule: NC1=Nc2ccc(Oc3ccccc3)cc2CN1CCCNC(=O)C1CCC1
% Inhibition (FS) / %: 39

molecule: CC(C)(C)OC(=O)N1CCC(CN2Cc3cc(Oc4ccccc4)ccc3N=C2N)CC1
% Inhibition (FS) / %: 41

molecule: Cc1cc(C(=O)NCCN2Cc3cc(-c4ccccc4)ccc3N=C2N)c(C)o1
% Inhibition (FS) / %: 59

molecule: CC(C)C(=O)NCC(C1CCCCC1)N1Cc2cc(Oc3ccccc3)ccc2N=C1N (stereo not shown)
% Inhibition (FS) / %: 106

I: CN(C(=O)c1ccc(CN2Cc3cc(Oc4ccccc4)ccc3N=C2N)s1)C1CCCCC1
II: NC1=Nc2ccc(Oc3ccccc3)cc2CN1Cc1cccc(CNC(=O)C2CCCCC2)c1
III: COc1ccccc1Oc1ccc2c(c1)CN(Cc1cccc(C(=O)N(C)C3CCCCC3)c1)C(N)=N2
QUERY: # desc sort on % Inhibition (FS) across 3 molecules Arrange the labels as the request states and list them.
RESULT: I, II, III

====

# tested_target: β-secretase (BACE) (Homo sapiens, UniProt P56817)
# Construct: purchased Panvera
# Sequence (P56817 46-501): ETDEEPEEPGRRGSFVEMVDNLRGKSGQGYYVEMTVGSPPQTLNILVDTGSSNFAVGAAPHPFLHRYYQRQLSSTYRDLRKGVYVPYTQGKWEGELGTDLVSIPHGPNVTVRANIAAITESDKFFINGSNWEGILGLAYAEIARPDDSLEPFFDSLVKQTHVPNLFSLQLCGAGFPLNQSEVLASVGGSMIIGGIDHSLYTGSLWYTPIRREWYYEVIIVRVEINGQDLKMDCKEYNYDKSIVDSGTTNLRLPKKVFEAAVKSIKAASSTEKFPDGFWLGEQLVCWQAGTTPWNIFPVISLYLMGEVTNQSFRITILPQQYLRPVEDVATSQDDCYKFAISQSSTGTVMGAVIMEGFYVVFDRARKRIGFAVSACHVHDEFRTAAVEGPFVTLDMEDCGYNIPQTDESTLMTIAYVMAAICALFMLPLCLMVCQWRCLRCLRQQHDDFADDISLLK
# experiment_description: BACE FS1 % Inhibition Assay
# Format: biochemical
# experimental_parameters: 1 μM compound; FS1 substrate
# Experimental: The following reagents were used in this assay: sodium acetate, PEG8000 (Sigma), DMSO, HEPES, FS1 substrate [[…]] […] The FS1-substrate stock solution was prepared in DMSO as a 10 mg/mL solution. The FS1-substrate working solution was prepared by diluting the 10 mg/mL stock solution with substrate assay buffer to a final concentration of 300 μg/mL. […] For test compounds, % inhibition was determined at each concentration as follows: [formula]
reported_endpoint: % Inhibition (FS) (%)

Use these answered entries as a reference point.
compound: COc1cccc(F)c1-c1ccc2c(c1)CN(CCNC(=O)C1CCC(C(F)(F)F)CC1)C(N)=N2 (stereo not shown)
measurement: 36
//
compound: COC(=O)[C@H](COCc1ccccc1)N(C)C(=O)CC[C@@H](C1CCOCC1)N1Cc2cc(Oc3ccccc3)ccc2N=C1N
measurement: 105
//
compound: NC1=Nc2ccc(Oc3ccccc3)cc2CN1[C@@H](CCC(=O)N[C@@H](CO)C(=O)O)C1CCOCC1
measurement: 79

P: CN(Cc1csc(-c2ccccc2)n1)C(=O)CC[C@@H](C1CCCCC1)N1Cc2cc(-c3ccccc3F)ccc2N=C1N
Q: CN(C(=O)CCC(C1CCCCC1)N1Cc2cc(Oc3ccccc3)ccc2N=C1N)C1CCC(C#N)CC1 (stereo not shown)
QUERY: Higher % Inhibition (FS) between P and Q ? Select an item and report its label.
RESULT: Q

====

Reported % Inhibition (FS) by item:
# tested_target: β-secretase (BACE) (Homo sapiens)
# Construct: purchased Panvera
# experiment_description: BACE FS1 % Inhibition Assay
# Type: biochemical
# experimental_parameters: 0.3 μM test compound

Use these answered entries as a reference point.
compound: CN(C(=O)c1cccc(CN2Cc3cc(Sc4ccc5ccccc5c4)ccc3N=C2N)c1)C1CCCCC1
% Inhibition (FS): <30%
--
compound: CN(C(=O)c1ccccc1CN1Cc2cc(Oc3ccccc3)ccc2N=C1N)C1CCCCC1
% Inhibition (FS): <30%
--
compound: NC1=Nc2ccc(Oc3c(F)cccc3F)cc2CN1CCC(=O)NC1C2CC3CC(C2)CC1C3 (centres unmarked)
% Inhibition (FS): <30%
--
compound: CC(=O)Nc1ccccc1-c1ccc2c(c1)CN(CCNC(=O)C1CCCCC1)C(N)=N2
% Inhibition (FS): <30%
--
compound: CN(C(=O)c1cccc(CN2Cc3cc([S+]([O-])c4ccccc4)ccc3N=C2N)c1)C1CCCCC1 (centres unmarked)
% Inhibition (FS): <30%
--
compound: NC1=Nc2ccc(-c3ccccc3F)cc2CN1CCNC(=O)C1CCCC1
% Inhibition (FS): 74%
--
compound: COc1cccc(OC)c1Oc1ccc2c(c1)CN(Cc1cccc(C(=O)N(C)C3CCCCC3)c1)C(N)=N2
% Inhibition (FS): <30%
--
compound: NC1=Nc2ccc(-c3ccccc3Cl)cc2CN1CCNC(=O)C1CCC1
% Inhibition (FS): 34%
--
compound: CN(C(=O)c1cccc(CN2Cc3cc(Sc4cccc5ccccc45)ccc3N=C2N)c1)C1CCCCC1
% Inhibition (FS): <30%
--
compound: CCCCC(CC)C(=O)NCCN1Cc2cc(-c3ccccc3F)ccc2N=C1N (centres unmarked)
% Inhibition (FS): 39%

QUERY: Checklist item: % Inhibition (FS) tested on β-secretase (BACE) (Homo sapiens), entry `COc1ccccc1-c1ccc2c(c1)CN(CCNC(=O)C1(C(N)=O)CC1)C(N)=N2` , value?
RESULT: <30%

QUERY: Checklist item: % Inhibition (FS) tested on β-secretase (BACE) (Homo sapiens), entry `CCCC(=O)NCCN1Cc2cc(-c3ccccc3C)ccc2N=C1N` , value?
RESULT: 43%

QUERY: Checklist item: % Inhibition (FS) tested on β-secretase (BACE) (Homo sapiens), entry `COc1ccccc1-c1ccc2c(c1)CN(CCNC(=O)CN)C(N)=N2` , value?
RESULT: <30%
